For each of the molecules below, state its log10 of ED2sec.
Test system: Rattus norvegicus
assay text: Dose (sc) required for a 2-s increase in reaction time in rat tail heat analgesia test
Assay type: functional
Response schema: value (number) is log10 of ED2sec in units of mg/kg.

Worked cases, log10 of ED2sec given:
molecule	log10 of ED2sec
CC(C)=CCN1CC[C@]2(C)c3cc(O)ccc3C[C@H]1[C@H]2C [(+)-PENTAZOCINE]	0.41
CN1CC[C@]23c4c5ccc(O)c4O[C@H]2[C@@H](O)C=C[C@H]3[C@H]1C5	-0.15
CN1CCC2(c3cccc(O)c3)CCCC[C@H]2C1 (single isomer, unassigned; (+))	-0.52
Oc1cccc(C23CCCC[C@H]2CN(CCc2ccccc2)CC3)c1 (stereo partly specified)	-1.10
COc1cccc(C23CCCC[C@H]2CN(C)CC3)c1 (stereo partly specified)	0.52

For each of the items listed, what is its log10 of ED2sec?
1. CN1CCC2(c3ccccc3)CCCC[C@H]2C1 (stereo partly specified)
2. CN1CCC2(c3cccc(O)c3)CCCC[C@H]2C1 (single isomer, unassigned; (-))
3. Oc1cccc(C23CCCC[C@H]2CN(CC2CC2)CC3)c1 (stereo in doubt; 29)
4. Oc1cccc(C23CCCC[C@H]2CN(CC2CC2)CC3)c1 (single isomer, unassigned; (-))
5. C=CCN1CCC2(c3cccc(O)c3)CCCC[C@H]2C1 (stereo partly specified)
6. CN1CCC2(c3cccc(O)c3)CCCC[C@H]2C1 (stereo in doubt; 13)
7. CCCN1CCC2(c3cccc(O)c3)CCCC[C@H]2C1 (stereo partly specified)
8. CC(C)=CCN1CCC2(c3cccc(O)c3)CCCC[C@H]2C1 (stereo partly specified)

[0.94, 0.20, 0.75, 0.48, 0.15, -0.40, 0.11, 0.18]

---

test system: Kappa-type opioid receptor (Cavia porcellus) (UniProt P41144)
Sequence (P41144 whole entry): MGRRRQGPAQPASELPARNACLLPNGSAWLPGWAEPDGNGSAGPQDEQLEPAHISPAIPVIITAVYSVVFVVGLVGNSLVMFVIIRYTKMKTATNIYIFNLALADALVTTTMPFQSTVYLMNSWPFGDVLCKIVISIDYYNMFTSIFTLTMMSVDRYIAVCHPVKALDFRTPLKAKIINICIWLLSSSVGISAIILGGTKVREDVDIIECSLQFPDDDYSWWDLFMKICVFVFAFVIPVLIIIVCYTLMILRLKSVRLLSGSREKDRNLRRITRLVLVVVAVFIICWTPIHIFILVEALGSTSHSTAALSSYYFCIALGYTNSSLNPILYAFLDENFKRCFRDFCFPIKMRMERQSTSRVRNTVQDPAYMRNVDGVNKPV
assay text: Percent displacement of [3H]EKC from Opioid receptor kappa 1 in guinea pig cortex at 100 nM conc. of compound
Please provide measured Displacement for the entries that follow.
Give bare numbers, in %.

compound	Displacement, %
Oc1cccc(C23CCCC[C@H]2CN(CC2CC2)CC3)c1 (single isomer, unassigned; (+))	5

Hey, can you go through the list below and give me Displacement for every item?
1. Oc1cccc(C23CCCC[C@H]2CN(CCc2ccccc2)CC3)c1 (single isomer, unassigned; (+))
2. CCN1CCC2(c3cccc(O)c3)CCCC[C@H]2C1 (single isomer, unassigned; (+))
3. CCCN1CCC2(c3cccc(O)c3)CCCC[C@H]2C1 (single isomer, unassigned; (-))
4. CCCN1CCC2(c3cccc(O)c3)CCCC[C@H]2C1 (single isomer, unassigned; (+))

[8, 0, 12, 4]

---

Would you mind telling me the reported Displacement of each entry?
test system: Mu-type opioid receptor (Rattus norvegicus)
assay text: Percent displacement of [3H]-NAL from Opioid receptor mu 1 in rat brain at 1000 nM conc. of compound
Assay type: tissue-based
One number for each entry, in %.

Can you give me Displacement for all of these, one by one?
1. Oc1cccc(C23CCCC[C@H]2CN(CC2CC2)CC3)c1 (single isomer, unassigned; (+))
2. Oc1cccc(C23CCCC[C@H]2CN(CCc2ccccc2)CC3)c1 (single isomer, unassigned; (+))
3. CCN1CCC2(c3cccc(O)c3)CCCC[C@H]2C1 (single isomer, unassigned; (+))
4. CCCN1CCC2(c3cccc(O)c3)CCCC[C@H]2C1 (single isomer, unassigned; (+))

1. 35
2. 74
3. 70
4. 83

---

The reader will find pKi measurements below, all made with Kappa-type opioid receptor (Cavia porcellus).
Numbers only, as −log10 of the molar value.

For each of the compounds below, note its pKi.
1. CN1CCC2(c3cccc(O)c3)CCCC[C@H]2C1 (single isomer, unassigned; (-))
2. Oc1cccc(C23CCCC[C@H]2CN(CC2CC2)CC3)c1 (single isomer, unassigned; (-))

6.36
8.60

# per-item lookup of pKi; items listed below
1. CC(C)=CCN1CC[C@]2(C)c3cc(O)ccc3C[C@H]1[C@H]2C [(+)-PENTAZOCINE]
2. CN1CCC2(c3cccc(O)c3)CCCC[C@H]2C1 (single isomer, unassigned; (+))

[7.12, 7.21]

---

test system: Kappa-type opioid receptor (Cavia porcellus, UniProt P41144)
Sequence (P41144 whole entry): as above
Consider the following compounds; for each one, report its Ki.
One number for each entry, in nM.

// below: answered compounds
compound	test system	assay endpoint	experimental value
C=CCN1CC[C@]23c4c5ccc(O)c4O[C@H]2[C@@H](O)C=C[C@H]3[C@H]1C5	Kappa-type opioid receptor (Cavia porcellus, UniProt P41144)	Ki	15
Oc1cccc(C23CCCC[C@H]2CN(CCc2ccccc2)CC3)c1 (single isomer, unassigned; (-))	Kappa-type opioid receptor (Cavia porcellus, UniProt P41144)	Ki	89
C[C@H]1[C@H]2Cc3ccc(O)cc3[C@]1(C)CCN2CC1CC1	Kappa-type opioid receptor (Cavia porcellus, UniProt P41144)	Ki	1.3

// switching to the query compound
For Kappa-type opioid receptor (Cavia porcellus, UniProt P41144), give the measured Ki of the entry CCN1CCC2(c3cccc(O)c3)CCCC[C@H]2C1 (some centres undefined)
529

---

test system: Mu-type opioid receptor (Rattus norvegicus, UniProt P33535)
Sequence (P33535 whole entry): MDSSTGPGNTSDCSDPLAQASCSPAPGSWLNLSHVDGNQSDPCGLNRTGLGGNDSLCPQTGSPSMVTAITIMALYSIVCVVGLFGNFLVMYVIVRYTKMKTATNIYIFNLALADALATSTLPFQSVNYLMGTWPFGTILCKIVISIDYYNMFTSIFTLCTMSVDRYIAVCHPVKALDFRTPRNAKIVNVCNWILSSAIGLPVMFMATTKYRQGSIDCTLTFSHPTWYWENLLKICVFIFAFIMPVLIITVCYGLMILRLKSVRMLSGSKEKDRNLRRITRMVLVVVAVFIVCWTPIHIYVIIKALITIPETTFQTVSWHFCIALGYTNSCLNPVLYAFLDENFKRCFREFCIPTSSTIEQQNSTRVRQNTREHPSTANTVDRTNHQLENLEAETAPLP
Please respond with reported pKi for every item in the list.
Numbers only, as −log10 of the molar value.

Worked examples follow.
compound	pKi
CCN1CCC2(c3cccc(O)c3)CCCC[C@H]2C1 (some centres undefined)	7.54
CC(C)=CCN1CC[C@]2(C)c3cc(O)ccc3C[C@H]1[C@H]2C [(+)-PENTAZOCINE]	8.16
C=CCN1CC[C@]23c4c5ccc(O)c4O[C@H]2[C@@H](O)C=C[C@H]3[C@H]1C5	8.19
CCCN1CCC2(c3cccc(O)c3)CCCC[C@H]2C1 (single isomer, unassigned; (-))	6.33
CN1CCC2(c3cccc(O)c3)CCCC[C@H]2C1 (single isomer, unassigned; (+))	9.02

Give me pKi for each of these compounds, listed below.
1. CN1CCC2(c3cccc(O)c3)CCCC[C@H]2C1 (single isomer, unassigned; (-))
2. Oc1cccc(C23CCCC[C@H]2CN(CC2CC2)CC3)c1 (single isomer, unassigned; (-))
3. C[C@H]1[C@H]2Cc3ccc(O)cc3[C@]1(C)CCN2CC1CC1
4. Oc1cccc(C23CCCC[C@H]2CN(CCc2ccccc2)CC3)c1 (single isomer, unassigned; (-))

1: 8.05; 2: 8.38; 3: 8.92; 4: 9.64

---

Could you please report measured Displacement for the items listed next?
test system: UniProt P41144
assay text: Percent displacement of [3H]EKC from Opioid receptor kappa 1 in guinea pig cortex at 1000 nM conc. of compound

compound	test system	assay endpoint	experimental value
CCN1CCC2(c3cccc(O)c3)CCCC[C@H]2C1 (single isomer, unassigned; (+))	UniProt P41144	Displacement	15%
CCCN1CCC2(c3cccc(O)c3)CCCC[C@H]2C1 (single isomer, unassigned; (-))	UniProt P41144	Displacement	46%
Oc1cccc(C23CCCC[C@H]2CN(CC2CC2)CC3)c1 (single isomer, unassigned; (+))	UniProt P41144	Displacement	32%

Tell me Displacement reported for Oc1cccc(C23CCCC[C@H]2CN(CCc2ccccc2)CC3)c1 (single isomer, unassigned; (+))
53%

---

Test system: Rattus norvegicus
assay text: Dose (sc) required for a 2-s increase in reaction time in rat tail heat analgesia test
Type: functional
assay endpoint: ED2sec

// below: answered compounds
compound	test system	ED2sec
CCN1CCC2(c3cccc(O)c3)CCCC[C@H]2C1 (stereo partly drawn)	Rattus norvegicus	>100 mg/kg
C=CCN1CC[C@]23c4c5ccc(O)c4O[C@H]2[C@@H](O)C=C[C@H]3[C@H]1C5 [NALORPHINE]	Rattus norvegicus	>100 mg/kg

For the compound Oc1cccc(C23CCCC[C@H]2CN(CC2CC2)CC3)c1 (single isomer, unassigned; (+)) , give its reported ED2sec.
>50 mg/kg
